molecular target: GLP-1R (Homo sapiens); test: GLP-1R Activation - cAMP Assay; format: cell-based; settings: cAMP increase in CHO cells stably expressing GLP-1R; each compound run on one of the two cAMP assays (Assay 1 or Assay 2, not specified)
Sequence (P43220 24-463): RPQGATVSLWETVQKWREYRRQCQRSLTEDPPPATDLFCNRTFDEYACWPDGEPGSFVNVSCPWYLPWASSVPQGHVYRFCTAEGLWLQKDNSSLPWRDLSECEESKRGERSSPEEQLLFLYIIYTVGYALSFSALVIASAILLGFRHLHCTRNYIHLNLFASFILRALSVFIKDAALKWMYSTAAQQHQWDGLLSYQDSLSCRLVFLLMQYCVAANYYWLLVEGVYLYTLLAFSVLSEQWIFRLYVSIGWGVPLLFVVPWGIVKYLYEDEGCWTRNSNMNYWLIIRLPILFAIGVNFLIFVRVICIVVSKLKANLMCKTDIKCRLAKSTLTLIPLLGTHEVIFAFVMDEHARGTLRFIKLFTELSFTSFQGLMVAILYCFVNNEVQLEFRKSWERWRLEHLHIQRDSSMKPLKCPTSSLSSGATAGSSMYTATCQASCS
pEC50: −log10 of the molar value.
Would you please tag the item satisfied when its pEC50 is 10 or above, and not satisfied when it is below?

Is the recorded value of pEC50 equal to or greater than 10 for this compound? COCCn1c(Cc2c(F)cc(-c3cccc(OCc4ccc(C#N)cc4F)n3)c3nccn23)nc2ccc(C(=O)O)cc21 [Example 50]
not satisfied

Record CC1(C)COC[C@H]1n1c(Cc2cc(F)c(-c3ccnc(OCc4ccc(Cl)cc4)n3)cc2F)nc2c(F)cc(C(=O)O)cc21 [Example 230] ; criterion: pEC50 no lower than 10. Met?
satisfied

Please indicate if the recorded pEC50 for CC1(C)COC[C@H]1n1c(Cc2cc(F)c(-c3cccc(OCc4ccc(Cl)c(Cl)c4)n3)cc2F)nc2ccc(C(=O)O)cc21 [Example 393] meets or exceeds 10.
not satisfied

Quick check, pEC50 >= 10? CC1(C)COC[C@H]1n1c(Cc2c(F)cc(-c3ccc(Cl)c(OCc4ccc(C#N)cc4F)n3)c(F)c2F)nc2ccc(C(=O)O)cc21 [Example 416]
not satisfied

Does pEC50 meet or surpass 10 for CCO[C@H]1COC[C@H]1n1c(Cc2cc(F)c(-c3cccc(OCc4ccc(Cl)cc4F)n3)cc2F)nc2ccc(C(=O)O)cc21 [Example 571] ?
not satisfied

# bool: pEC50 of CO[C@@H]1COCC1n1c(Cc2cc(F)c(-c3cccc(OCc4ccc(C#N)cc4F)n3)cc2F)nc2c(F)cc(C(=O)O)cc21 (single isomer, unassigned) [Example 239] >= 10
satisfied

Answer whether pEC50 of O=C(O)c1ccc2nc(Cc3cc(F)c(-c4cccc(OCc5ccc(Cl)cc5F)n4)cc3F)n(C34COCC(C3)C4)c2c1 [Example 406] is greater than or equal to 10.
not satisfied

// inclusive: pEC50 at least 10? input: CC1(C)COC[C@H]1n1c(Cc2cc(F)c(-c3cccc(OCc4ccc(C(F)(F)F)cc4C#N)n3)cc2F)nc2ccc(C(=O)O)cc21 [Example 413]
not satisfied

API: above_or_equal(metric=pEC50, cutoff=10) for item Cc1cc(F)c(COc2cccc(-c3cc(F)c(Cc4nc5ccc(C(=O)O)cc5n4[C@@H]4COCC4(C)C)cc3F)n2)cc1Cl [Example 459]
not satisfied

Is pEC50 at least 10? Consider COCCn1c(Cc2cc(F)c(-c3cccc(OCc4ccc(C#N)cc4)n3)cc2F)nc2ccc(C(=O)O)cc21 [Example 511]
not satisfied

Given N#Cc1ccc(COc2cccc(-c3cc(F)c(Cc4nc5ccc(C(=O)O)cc5n4[C@@H]4COC[C@@H]4C(F)F)cc3F)n2)c(F)c1 (single isomer, unassigned) [Example 233] , state whether its pEC50 is at least 10.
not satisfied

Is it the case that Cn1nnc2cc(COc3cccc(-c4cc(F)c(Cc5nc6ccc(C(=O)O)cc6n5[C@@H]5COCC5(C)C)cc4F)n3)ccc21 [Example 512] has pEC50 reaching or exceeding 10?
not satisfied

Textbook exercise: given the entry COC(C)(C)Cn1c(Cc2cc(F)c(-c3cccc(OCc4cnc(-n5ccnn5)cc4Cl)n3)cc2F)nc2ccc(C(=O)O)cc21 [Example 563] , state whether its pEC50 is greater than or equal to 10.
satisfied

Record COCCn1c(C(F)(F)c2cc(F)c(-c3cccc(OCc4ccc(C#N)cc4F)n3)cc2F)nc2ccc(C(=O)O)cc21 [Example 52] ; criterion: pEC50 no lower than 10. Met?
not satisfied

Is pEC50 for COCCn1c(Cc2cc(F)c(-c3cccc(OCc4ccc(C(F)(F)F)nc4Cl)n3)cc2F)nc2ccc(C(=O)O)cc21 [Example 34] at or above 10?
not satisfied

Hello, I need to know if N#Cc1ccc(COc2cccc(-c3cc(F)c(Cc4nc5ccc(C(=O)O)cc5n4C4CCC45CC5)cc3F)n2)c(F)c1 (stereo not shown) [Example 64] has measured pEC50 not below 10. Thanks!
not satisfied
